test system: A549; experiment: Cytotoxicity against human A549 cells after 48 hrs by MTT assay; type: functional, cell-based
reported_metric: log10 of IC50 (log10 of the value in µmol)
Each number you see is log10 of IC50, and the unit inside the log is µmol.

Solved entries:
molecule=C/C=C(\C)C(=O)O[C@@H]1CC(C)(C)C[C@H]2C3=CC[C@@H]4[C@@]5(C)CC[C@H](OC(=O)/C=C/c6ccccc6)C(C)(C)[C@@H]5CC[C@@]4(C)[C@]3(C)CC[C@@]12C(=O)O system_name=A549 reported_value=-0.92
molecule=C/C=C(\C)C(=O)O[C@@H]1CC(C)(C)C[C@H]2C3=CC[C@@H]4[C@@]5(C)CC[C@H](OC(=O)c6ccccc6Cl)C(C)(C)[C@@H]5CC[C@@]4(C)[C@]3(C)CC[C@@]12C(=O)O system_name=A549 reported_value=0.83
molecule=CC(C)=CC(=O)O[C@@H]1CC(C)(C)C[C@H]2C3=CC[C@@H]4[C@@]5(C)CC[C@H](OC(=O)/C=C/c6ccccc6)C(C)(C)[C@@H]5CC[C@@]4(C)[C@]3(C)CC[C@@]12C(=O)O system_name=A549 reported_value=-1.10

Quote log10 of IC50 with test system A549 for `C/C=C(\C)C(=O)O[C@@H]1CC(C)(C)C[C@H]2C3=CC[C@@H]4[C@@]5(C)CC[C@H](OC(C)=O)C(C)(C)[C@@H]5CC[C@@]4(C)[C@]3(C)CC[C@@]12C(=O)O`
0.73

Quote log10 of IC50 with test system A549 for `CC(C)=CC(=O)O[C@@H]1CC(C)(C)C[C@H]2C3=CC[C@@H]4[C@@]5(C)CC[C@H](OC(=O)c6ccccc6)C(C)(C)[C@@H]5CC[C@@]4(C)[C@]3(C)CC[C@@]12C(=O)O`
0.86

Quote log10 of IC50 with test system A549 for `C/C=C(\C)C(=O)O[C@@H]1CC(C)(C)C[C@H]2C3=CC[C@@H]4[C@@]5(C)CC[C@H](OC(=O)c6ccccc6)C(C)(C)[C@@H]5CC[C@@]4(C)[C@]3(C)CC[C@@]12C(=O)O`
0.87

Quote log10 of IC50 with test system A549 for `CC(C)=CC(=O)O[C@@H]1CC(C)(C)C[C@H]2C3=CC[C@@H]4[C@@]5(C)CC[C@H](O)C(C)(C)[C@@H]5CC[C@@]4(C)[C@]3(C)CC[C@@]12C(=O)O`
-0.37

Quote log10 of IC50 with test system A549 for `C/C=C(/C)C(=O)O[C@@H]1CC(C)(C)C[C@H]2C3=CC[C@@H]4[C@@]5(C)CC[C@H](O)C(C)(C)[C@@H]5CC[C@@]4(C)[C@]3(C)CC[C@@]12C(=O)O`
-0.10

Quote log10 of IC50 with test system A549 for `CC(C)=CC(=O)O[C@@H]1CC(C)(C)C[C@H]2C3=CC[C@@H]4[C@@]5(C)CCC(=O)C(C)(C)[C@@H]5CC[C@@]4(C)[C@]3(C)CC[C@@]12C(=O)O`
0.08

Quote log10 of IC50 with test system A549 for `CC(C)=CC(=O)O[C@@H]1CC(C)(C)C[C@H]2C3=CC[C@@H]4[C@@]5(C)CC[C@H](OC(=O)c6ccccc6Cl)C(C)(C)[C@@H]5CC[C@@]4(C)[C@]3(C)CC[C@@]12C(=O)O`
0.81

Quote log10 of IC50 with test system A549 for `CC(=O)O[C@H]1CC[C@]2(C)[C@H]3CC=C4[C@@H]5CC(C)(C)C[C@@H](OC(=O)C=C(C)C)[C@]5(C(=O)O)CC[C@@]4(C)[C@]3(C)CC[C@H]2C1(C)C`
0.69
